The entries below are paired with their reported amyloid nucleation score.
# MEASUREMENT DESCRIPTION: amyloid nucleation score (Sup35N fusion, yeast selection) (log enrichment); library NNK2; higher = more nucleation; inactive = no reads after selection;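 note: zero at mode of non-aggregating sequences after 7 days selection at 30°C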
Please respond with just the number, no unit label.

SEQUENCE CODE | amyloid nucleation score
CILLGSWLVNFYVWWSRMPI | -0.031
RRGIASILGHYRGTKMTGFD | 0.135
LAISHMLSKCVKKIDTL | 1.56
NLWVCFWSDSCFT | 8.09
SCYRIWIMILVIGFSLNRRL | -0.208
SCTDLLYDIDCIHSHECLLL | -0.397

Consider now this further sequence.
Problem: Any idea what amyloid nucleation score was measured for LNVDGDRAGVYIVKVHDPVR ?
Solution: 0.027

###

# MEASUREMENT DESCRIPTION: amyloid nucleation score (Sup35N fusion, yeast selection) (log enrichment); library NNK3; higher = more nucleation; inactive = no reads after selection
The entries below are paired with their reported amyloid nucleation score.
Please respond with just the number, no unit label.

Problem: Any idea what amyloid nucleation score was measured for FLRLKFRAYDP ?
Solution: 1.01

Problem: Follow-up entry: EAKLVGGFTDFRELITNCLV
Solution: 1.01

Problem: Follow-up entry: GLRNHCPSFLLWASTARGTL
Solution: -0.976

###

# MEASUREMENT DESCRIPTION: amyloid nucleation score (Sup35N fusion, yeast selection) (log enrichment); library NNK2; higher = more nucleation; inactive = no reads after selection
Please enter Condition met where amyloid nucleation score is greater than or equal to 3, and Condition not met where it is lower.

Answered examples (4):
SUBSTANCE | ASSIGNED CLASS
GSEECTLTDCRGSRQDILKR | Condition not met
WLWNNG | Condition not met
NVVGRYKSSDSLTYARWGWR | Condition not met
LAGFGMNFSFRFSVLTWGSV | Condition met

Pending substance:
Problem: In plain terms: is recorded amyloid nucleation score at least 3 for HVTRVSVLQVLELHSTMTGV ?
Solution: Condition met

###

# MEASUREMENT DESCRIPTION: amyloid nucleation score (Sup35N fusion, yeast selection) (log enrichment); library NNK1; higher = more nucleation; inactive = no reads after selection
Please enter Yes where amyloid nucleation score is greater than or equal to 0.5, and No where it is lower.

Answered examples (5):
SUBSTANCE | ASSIGNED CLASS
MEGRVMGKRVAVY | No
VIQEPKFMYLQLFVGLPCVS | Yes
KTFYFTQLYSDYRLFFETGK | Yes
ELRCTTWSRSPSLQVALVDL | No
SSLRPRKCCWRKTRRLSKGG | No

Problem: In plain terms: is recorded amyloid nucleation score at least 0.5 for FKRFWLR ?
Solution: No

Problem: Follow-up entry: MVIRYFCQESA
Solution: No

Problem: Follow-up entry: MVAIRWYRMGLDDMNSGTVN
Solution: No

###

# MEASUREMENT DESCRIPTION: amyloid nucleation score (Sup35N fusion, yeast selection) (log enrichment); library NNK2; higher = more nucleation; inactive = no reads after selection
ENDPOINT LABEL: amyloid nucleation score
Please respond with just the number, no unit label.

Here are 8 substances together with their reported answers.
SUBSTANCE | amyloid nucleation score
VPNYLCGDTLPEYYETPPDH | 0.224
TCLSRVPPS | -0.797
WLGYEEGG | 0.508
KLTFTVMYTFCKVLSRDVAC | 3.1
ELNLNS | 0.695
QSCWIFSGHSE | -1.03
FCWFRLLEYFSR | -0.201
SLTASCI | -0.471

Consider now this further substance.
Problem: Any idea what amyloid nucleation score was measured for CNRSCLLGDNPCTVWRITLF ?
Solution: -0.644

###

# MEASUREMENT DESCRIPTION: amyloid nucleation score (Sup35N fusion, yeast selection) (log enrichment); library NNK1; higher = more nucleation; inactive = no reads after selection
ENDPOINT LABEL: amyloid nucleation score

Here are 5 sequences together with their reported answers.
SEQUENCE CODE | ENDPOINT LABEL | MEASUREMENT
VCRQMYVLDCYS | amyloid nucleation score | inactive
YASGLNSHDELVFYFYNRER | amyloid nucleation score | inactive
TMWIAGVRNR | amyloid nucleation score | -0.367
SVWLANCYGKYMGVVCYSKV | amyloid nucleation score | 0.537
YQDVIPNPVHRYTV | amyloid nucleation score | 0.371

Consider now this further sequence.
Problem: Any idea what amyloid nucleation score was measured for WWALIHRPMVRVLGVQRVD ?
Solution: -0.297

###

The entries below are paired with their reported amyloid nucleation score.
# MEASUREMENT DESCRIPTION: amyloid nucleation score (Sup35N fusion, yeast selection) (log enrichment); library NNK1; higher = more nucleation; inactive = no reads after selection
Please respond with just the number, no unit label.

Here are 3 substances together with their reported answers.
SUBSTANCE | amyloid nucleation score
SVSILP | -0.34
VFGLLPVSSCIVRNRRDLRN | -0.371
ISEMVEWSISPTLGETVTCM | 0.363

Problem: Any idea what amyloid nucleation score was measured for PFRNKNQMRWDMKM ?
Solution: 0.209

###

# MEASUREMENT DESCRIPTION: amyloid nucleation score (Sup35N fusion, yeast selection) (log enrichment); library NNK3; higher = more nucleation; inactive = no reads after selection
ENDPOINT LABEL: amyloid nucleation score

Here are 6 substances together with their reported answers.
SUBSTANCE | amyloid nucleation score
CEFWNKYSNLWIWGWL | 0.51
GSATSFAFFIVFLSD | 1.51
LSSETWRRLQIVSIHYGLVV | inactive
GWSFAWCTRVRVMGKVAVWW | inactive
KLGIRPDRISVTWCLSNTTV | -0.473
SITQSRLTP | -0.196

Problem: Any idea what amyloid nucleation score was measured for CTHHKNACL ?
Solution: inactive

Problem: Follow-up entry: HLACLRV
Solution: inactive

Problem: Follow-up entry: HFNPPYRMFPHYVLLMNMYL
Solution: inactive

###

# MEASUREMENT DESCRIPTION: amyloid nucleation score (Sup35N fusion, yeast selection) (log enrichment); library NNK2; higher = more nucleation; inactive = no reads after selection

SEQUENCE CODE | amyloid nucleation score
TRLCRNLAASPGFLWTVYKS | inactive
GMYNLSSGYRCERVGVAENI | -0.513
VVAMDRCLQPVFLHLLSNNF | inactive

###

# MEASUREMENT DESCRIPTION: amyloid nucleation score (Sup35N fusion, yeast selection) (log enrichment); library NNK1; higher = more nucleation; inactive = no reads after selection
ENDPOINT LABEL: amyloid nucleation score

SEQUENCE CODE | ENDPOINT LABEL | MEASUREMENT
YCVIHSIRLGRIHLDCFWDF | amyloid nucleation score | inactive
MNKQAFNGRM | amyloid nucleation score | inactive
LFRRRKITTVYIDKNAMLTS | amyloid nucleation score | inactive

###

# MEASUREMENT DESCRIPTION: amyloid nucleation score (Sup35N fusion, yeast selection) (log enrichment); library NNK2; higher = more nucleation; inactive = no reads after selection
ENDPOINT LABEL: amyloid nucleation score

SUBSTANCE | ENDPOINT LABEL | MEASUREMENT
RMPGWY | amyloid nucleation score | inactive
HEGIDVSMPHQDRTAADNLA | amyloid nucleation score | 0.409
CLPETLVDFWFKAHDAFNFV | amyloid nucleation score | inactive
CFLELYSWFKDAVTTFN | amyloid nucleation score | inactive

###

# MEASUREMENT DESCRIPTION: amyloid nucleation score (Sup35N fusion, yeast selection) (log enrichment); library NNK2; higher = more nucleation; inactive = no reads after selection
Please enter 1 where amyloid nucleation score is greater than or equal to 0.2, and -1 where it is lower.

SEQUENCE CODE | ASSIGNED CLASS
HRLQLPHHRKGKWVLLMWGV | -1

Problem: In plain terms: is recorded amyloid nucleation score at least 0.2 for DVSGISDARMGKPSQWYGWY ?
Solution: -1

Problem: Follow-up entry: SLIFSDPHLVIALNFT
Solution: 1

###

# MEASUREMENT DESCRIPTION: amyloid nucleation score (Sup35N fusion, yeast selection) (log enrichment); library NNK1; higher = more nucleation; inactive = no reads after selection
Please enter satisfied where amyloid nucleation score is greater than or equal to 0.4, and not satisfied where it is lower.

Answered examples (3):
SUBSTANCE | ASSIGNED CLASS
IGNPMWCQWSAL | satisfied
HSRYWSNIHSRWLTGRVRWG | not satisfied
YWGPKDAMGMSFIVSWDGPP | not satisfied

Problem: In plain terms: is recorded amyloid nucleation score at least 0.4 for IKWSGVVASGGDNPLTDHSR ?
Solution: not satisfied

Problem: Follow-up entry: VNSVWNGNR
Solution: not satisfied

Problem: Follow-up entry: RLYFRSSYDCDETRWKEKYM
Solution: not satisfied

Problem: Follow-up entry: FYLSYVIIYSSSIRCLSSCR
Solution: not satisfied

Problem: Follow-up entry: WYWELGLALKRWRYAANFGS
Solution: not satisfied

Problem: Follow-up entry: MRNIVWCCSVVLCCLFGVLF
Solution: not satisfied
